Known kon of a selection of binders
- measured_on: T1, wild type 2Ig-B7H3-mFc (human, UniProt Q5ZPR3-2 29-248, limits assumed)
- T1 construct: Q5ZPR3 canonical entry is the 4Ig isoform; the 2Ig form is its shorter isoform; also called 2Ig-B7H3-Fc; WT 2Ig-B7H3-Fc; not shown: mouse Fc
- T1 sequence (looked up): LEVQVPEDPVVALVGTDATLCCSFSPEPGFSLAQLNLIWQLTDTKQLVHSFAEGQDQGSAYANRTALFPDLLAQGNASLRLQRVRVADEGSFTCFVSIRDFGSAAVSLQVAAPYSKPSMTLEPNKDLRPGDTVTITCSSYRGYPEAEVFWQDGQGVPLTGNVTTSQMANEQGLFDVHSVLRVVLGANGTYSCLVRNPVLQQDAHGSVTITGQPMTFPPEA
- test_details: SPR, IgG on 2Ig-B7H3-mFc
# output: bare number, implied unit M⁻¹ s⁻¹

The cases that follow already have their kon on record.
hu8H9-H1L2 IgG1 (antibody, V domains shown) VH: QVQLVQSGAEVKKPGASVKLSCKASGYTFTNYDINWVRQAPGQGLEWIGWIFPGDGSTQYNEKFKGKATLTTDTSTSTAYMELSSLRSEDTAVYFCARQTTATWFAYWGQGTLVTVSS VL: EIVMTQSPATLSVSPGERVTLSCRASQSISDYLHWYQQKSHESPRLLIKYASQSISGIPARFSGSGSGTEFTLTINSVEPEDVGVYYCQNGHSFPLTFGQGTKLEIKR : 17000
mouse/human chimeric 8H9 (ch8H9) IgG1 (antibody, V domains shown) VH: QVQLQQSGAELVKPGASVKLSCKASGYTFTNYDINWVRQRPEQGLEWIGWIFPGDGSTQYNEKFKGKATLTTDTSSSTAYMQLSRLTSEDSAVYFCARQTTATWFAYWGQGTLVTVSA VL: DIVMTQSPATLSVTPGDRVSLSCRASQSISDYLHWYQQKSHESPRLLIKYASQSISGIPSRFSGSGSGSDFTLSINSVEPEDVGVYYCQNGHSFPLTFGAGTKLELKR : 49600
hu8H9 H3L3 IgG1 (antibody, V domains shown) VH: QVQLVQSGAEVVKPGASVKLSCKASGYTFTNYDINWVRQRPEQGLEWIGWIFPGDGSTQYNEKFKGKATLTTDTSTSTAYMELSSLRSEDTAVYFCARQTTATWFAYWGQGTLVTVSS VL: EIVMTQSPATLSVSPGERVSLSCRASQSISDYLHWYQQKSHESPRLLIKYASQSISGIPARFSGSGSGSEFTLTINSVEPEDVGVYYCQNGHSFPLTFGQGTKLELKR : 4.67e+06
hu8H9 5.1 IgG1 (antibody, V domains shown, also called clone 5.1) VH: QVQLVQSGAEVVKPGASVKVSCKTSGYTFTNYDINWVRQRPGQGLEWIGWIFPGDDSTQYNEKFKGRVTMTTDTSTSTVYMELSSLRSEDTAVYFCARQTTGTWFAYWGQGTLVTVSS VL: EIVMTQSPATLSVSPGERVTLSCRASQSISDYLYWYQQKSHQAPRLLIKYASQSISGIPARFSGSGSGSEFTLTISSLQPEDFGVYYCQNGHSFPLTFGQGTKLELKR : 67800

Consider the record given below.
q: Which kon value belongs to hu8H9 3.1 IgG1 (antibody, V domains shown, also called clone 3.1) VH: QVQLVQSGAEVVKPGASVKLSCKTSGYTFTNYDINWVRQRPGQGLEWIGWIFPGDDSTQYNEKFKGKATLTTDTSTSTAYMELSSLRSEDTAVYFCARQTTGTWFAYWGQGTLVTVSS VL: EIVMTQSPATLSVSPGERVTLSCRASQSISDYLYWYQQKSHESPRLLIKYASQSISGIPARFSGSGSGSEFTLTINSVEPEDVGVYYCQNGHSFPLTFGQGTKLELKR ?
a: 38700
